For each of the compounds below, state its MIC.
# Tested on: Escherichia coli
# RUN_DESCRIPTION: Synergistic antibacterial activity against wild type Escherichia coli BW25113 assessed as erythromycin MIC at 8 microg/ml incubated for 18 hrs by broth dilution assay
# Assay type: functional
# STUDY_CONDITIONS: dose 8 µg/ml
Peptide text beside a SMILES is read from it.
Give bare numbers, in µg/mL.

[[record]]
compound = "N=C(N)NCCC[C@H](NC(=O)[C@@H](N)Cc1ccccc1)C(=O)Nc1ccc2ccccc2c1 [PABETAN] (HELM PEPTIDE1{F.R.[c1ccc2cc(N[*:1])ccc2c1]}$$$$V2.0)"
property_name = "MIC"
reported_result = 16

[[record]]
compound = "COc1ccc(OCCCOc2cccc3c4c(c(C(=O)N5CCOCC5)cc23)CCC(C)(C)O4)cc1"
property_name = "MIC"
reported_result = 32

[[record]]
compound = "CC1(C)CCc2c(C(=O)N3CCOCC3)cc3c(OCCOc4ccc([N+](=O)[O-])cc4)cccc3c2O1"
property_name = "MIC"
reported_result = 64


Switching to the query record.
Enquiry: May I ask what MIC has been recorded for CC1(C)CCc2c(C(=O)N3CCOCC3)cc3c(OCCSc4ccc([N+](=O)[O-])cc4)cccc3c2O1 ?
Return: 16

###

For each of the compounds below, state its MIC.
# Tested on: Escherichia coli
# RUN_DESCRIPTION: Synergistic antibacterial activity against wild type Escherichia coli BW25113 assessed as erythromycin MIC at 8 microg/ml incubated for 18 hrs by broth dilution assay
# Type: functional
# STUDY_CONDITIONS: dose 8 µg/ml

// worked examples, MIC included
[[record]]
smiles_string = "CC1(C)CCc2c(C(=O)N3CCOCC3)cc3c(OCCCOc4cccc(C(=O)O)c4)cccc3c2O1"
property_name = "MIC"
reported_result = "32 µg/mL"

[[record]]
smiles_string = "CC1(C)CCc2c(C(=O)N3CCOCC3)cc3c(OCCCSc4ccc(N)cc4)cccc3c2O1"
property_name = "MIC"
reported_result = "64 µg/mL"


Switching to the query record.
Enquiry: Hello, I am looking for reported MIC with Escherichia coli for CC1(C)CCc2c(C(=O)N3CCOCC3)cc3c(OCCN4CCN(c5ccccc5)CC4)cccc3c2O1 . Could you help?
Return: 32 µg/mL

###

For each of the molecules below, state its MIC.
# System: Escherichia coli
# RUN_DESCRIPTION: Synergistic antibacterial activity against wild type Escherichia coli BW25113 assessed as erythromycin MIC at 8 microg/ml incubated for 18 hrs in presence of colistin by broth dilution assay
# Assay type: functional
# STUDY_CONDITIONS: dose 8 µg/ml
Answers are plain numbers, in µg/mL.

// worked examples, MIC included
[[record]]
smiles_string = "CC1(C)CCc2c(C(=O)N3CCOCC3)cc3c(OCCOc4ccc([N+](=O)[O-])cc4)cccc3c2O1"
reported_result = 8

[[record]]
smiles_string = "CC1(C)CCc2c(C(=O)N3CCOCC3)cc3c(OCCN4CCN(c5ccccc5)CC4)cccc3c2O1"
reported_result = 4


Can you give me MIC for all of these, one by one?
1. CC1(C)CCc2c(C(=O)N3CCOCC3)cc3c(OCCCSc4ccc(N)cc4)cccc3c2O1
2. CC1(C)CCc2c(C(=O)N3CCOCC3)cc3c(OCCSc4ccc([N+](=O)[O-])cc4)cccc3c2O1
3. COc1ccc(OCCCOc2cccc3c4c(c(C(=O)N5CCOCC5)cc23)CCC(C)(C)O4)cc1
4. CC1(C)CCc2c(C(=O)N3CCOCC3)cc3c(OCCCOc4cccc(C(=O)O)c4)cccc3c2O1

Return:
8
8
16
8
